// data source = patent US20110059889A1

- Study System: T1, soluble human FcRn (shFcRn) (human, UniProt P55899 24-297; P61769 21-119)
- T1 construct: Biotinylated for the ELISA, amine-coupled to a CM5 chip for SPR; also called biotinylated shFcRn
- T1 sequence (P55899 24-297 limits assumed, chain 1 of 2): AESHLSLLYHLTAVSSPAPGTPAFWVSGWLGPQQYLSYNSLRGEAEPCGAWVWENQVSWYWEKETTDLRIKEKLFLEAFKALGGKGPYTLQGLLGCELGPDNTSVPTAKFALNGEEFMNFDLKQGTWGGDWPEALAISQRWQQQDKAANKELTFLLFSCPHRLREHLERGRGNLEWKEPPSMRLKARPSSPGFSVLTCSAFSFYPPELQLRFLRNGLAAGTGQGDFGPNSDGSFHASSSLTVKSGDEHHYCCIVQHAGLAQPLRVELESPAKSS
- T1 sequence (P61769 21-119 limits assumed, chain 2 of 2): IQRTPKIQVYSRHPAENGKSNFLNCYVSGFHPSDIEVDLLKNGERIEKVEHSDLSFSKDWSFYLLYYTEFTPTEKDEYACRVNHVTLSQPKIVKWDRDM
- Test: IgG competition ELISA
Bridge positions count the residues as written; N and C are the ends. Square brackets hold non-standard residues; d marks the D form. Ends that are not written are not given here. Pen = CC(C)(S)[C@H](N)C(=O)O
Readout: IC50 (nM)

binder="QRY[Pen]TGHFGGLYPCNGP-NH2 (disulfide 4-14; N-terminus assumed; SMILES CC(C)C[C@@H]1NC(=O)CNC(=O)CNC(=O)[C@H](Cc2ccccc2)NC(=O)[C@H](Cc2c[nH]cn2)NC(=O)CNC(=O)[C@H]([C@@H](C)O)NC(=O)[C@@H](NC(=O)[C@H](Cc2ccc(O)cc2)NC(=O)[C@H](CCCNC(=N)N)NC(=O)[C@@H](N)CCC(N)=O)C(C)(C)SSC[C@@H](C(=O)N[C@@H](CC(N)=O)C(=O)NCC(=O)N2CCC[C@H]2C(N)=O)NC(=O)[C@@H]2CCCN2C(=O)[C@H](Cc2ccc(O)cc2)NC1=O) [Peptide No. 97]" unit_text=nM reported_result=2400
